Measured MIC by item
# Tested on: up to 32 different microorganisms
# ASSAY NAME: in vitro antibacterial activity (MIC), agar dilution on Brain Heart Infusion (BHI) agar with Steers replicator
# Assay type: cell-based
# RUN PARAMETERS: Staphylococcus aureus CMX 642A (code DD); unit assumed
Expressed in µg/mL, but write only the number.

# example entries with known answers
Q: Specify MIC for CC[C@H]1OC(=O)[C@H](C)C(=O)[C@H](C)[C@@H](O[C@@H]2O[C@H](C)C[C@H](N(C)C)[C@H]2O)[C@@](C)(OCCCc2ccccc2)C[C@@H](C)C(=O)[C@H](C)[C@@H](O)[C@]1(C)O [Example 15] and stop.
A: 6.2

Q: Specify MIC for CCC1OC(=O)C(C)C(=O)C(C)C(OC2OC(C)CC(N(C)C)C2O)C(C)(OCC=Cc2ccc3ncccc3c2)CC(C)C(=O)C(C)C2NC(=O)OC12C (stereo not drawn) [Example 194, R is —CH2CH═CH-(6-quinolyl)] and stop.
A: 0.05

Now let's try a different one.
Q: Specify MIC for CCC1OC(=O)C(C)C(=O)C(C)C(OC2OC(C)CC(N(C)C)C2O)C(C)(OCC=Cc2ccc3c(c2)OCO3)CC(C)C(=O)C(C)C2NC(=O)OC12C (stereo not drawn) [Example 188] and stop.
A: 0.1

###

Measured MIC by item
# Tested on: up to 32 different microorganisms
# ASSAY NAME: in vitro antibacterial activity (MIC), agar dilution on Brain Heart Infusion (BHI) agar with Steers replicator
# Assay type: cell-based
# RUN PARAMETERS: organism code EE; unit assumed
Expressed in µg/mL, but write only the number.

Q: Specify MIC for CCC1OC(=O)C(C)C(=O)C(C)C(OC2OC(C)CC(N(C)C)C2O)C(C)(OCC2CC2c2cnc3ccccc3c2)CC(C)C(=O)C(C)C2NC(=O)OC12C (stereo not drawn) [Example 243] and stop.
A: 0.1

---
Q: Specify MIC for CCC1OC(=O)C(C)C(=O)C(C)C(OC2OC(C)CC(N(C)C)C2O)C(C)(OCC=Cc2cc(Cl)cc(Cl)c2)CC(C)C(=O)C(C)C2NC(=O)OC12C (stereo not drawn) [Example 284] and stop.
A: 0.2

Q: Specify MIC for CCC1OC(=O)C(C)C(=O)C(C)C(OC2OC(C)CC(N(C)C)C2O)C(C)(OCC=Cc2cnc3ccc(F)cc3c2)CC(C)C(=O)C(C)C2NC(=O)OC12C (stereo not drawn) [Example 215, R is —CH2CH═CH-(6-fluoro-3-quinolyl)] and stop.
A: 0.1

###

Measured MIC by item
# Test system: up to 32 different microorganisms
# ASSAY NAME: in vitro antibacterial activity (MIC), agar dilution on Brain Heart Infusion (BHI) agar with Steers replicator
# Format: cell-based
# RUN PARAMETERS: Micrococcus luteus ATCC 9341 (code OO); unit assumed
Expressed in µg/mL, but write only the number.

Q: State the measured MIC (up to 32 different microorganisms) of CC[C@H]1OC(=O)[C@H](C)C(=O)[C@H](C)[C@@H](O[C@@H]2O[C@H](C)C[C@H](N(C)C)[C@H]2O)[C@@](C)(OCCNCc2ccccc2)C[C@@H](C)C(=O)[C@H](C)[C@@H](O)[C@]1(C)O
A: 0.2

Q: State the measured MIC (up to 32 different microorganisms) of CC[C@H]1OC(=O)[C@H](C)C(=O)[C@H](C)[C@@H](O[C@@H]2O[C@H](C)C[C@H](N(C)C)[C@H]2O)[C@@](C)(OCC=Cc2ccccc2)C[C@@H](C)C(=O)[C@H](C)[C@H]2OC(=O)O[C@@]21C
A: 0.01

Now let's try a different one.
Q: State the measured MIC (up to 32 different microorganisms) of CCC1OC(=O)C(C)C(=O)C(C)C(OC2OC(C)CC(N(C)C)C2O)C(C)(OCC=Cc2cnc3ccccc3c2)CC(C)C(=O)C(C)C2N(CCN(C)C)C(=O)OC12C (stereo not drawn)
A: 0.02

###

# System: up to 32 different microorganisms
# ASSAY NAME: in vitro antibacterial activity (MIC), agar dilution on Brain Heart Infusion (BHI) agar with Steers replicator
# Type: cell-based
# RUN PARAMETERS: Micrococcus luteus ATCC 9341 (code OO); unit assumed
# note: exactly 0.8 µg/mL is not below, so it is Criterion not met; use Criterion met for MIC strictly under it

Illustrative cases are given below, each with its answer.
Q: Does C=CCOC1(C)CC(C)C(=NO)C(C)C(O)C(C)(O)C(CC)OC(=O)C(C)C(=O)C(C)C1OC1OC(C)CC(N(C)C)C1O (centres unmarked) have MIC strictly under 0.8 µg/mL?
A: Criterion not met

Q: Does CCC1OC(=O)C(C)C(=O)C(C)C(OC2OC(C)CC(N(C)C)C2O)C(C)(OCC=Cc2ccc3[nH]ccc3c2)CC(C)C(=O)C(C)C2NC(=O)OC12C (centres unmarked) have MIC strictly under 0.8 µg/mL?
A: Criterion met

Q: Does CC[C@H]1OC(=O)[C@H](C)C(=O)[C@H](C)[C@@H](O[C@@H]2O[C@H](C)C[C@H](N(C)C)[C@H]2O)[C@@](C)(OCCN)C[C@@H](C)C(=O)[C@H](C)[C@@H](O)[C@]1(C)O have MIC strictly under 0.8 µg/mL?
A: Criterion not met

Continue with the next compound.
Q: Does CC[C@H]1OC(=O)[C@H](C)C(=O)[C@H](C)[C@@H](O[C@@H]2O[C@H](C)C[C@H](N(C)C)[C@H]2O)[C@@](C)(OCC=Cc2ccc(OC)cc2)C[C@@H](C)C(=O)[C@H](C)[C@@H](O)[C@]1(C)O have MIC strictly under 0.8 µg/mL?
A: Criterion met

###

# System: up to 32 different microorganisms
# ASSAY NAME: in vitro antibacterial activity (MIC), agar dilution on Brain Heart Infusion (BHI) agar with Steers replicator
# Assay type: cell-based
# RUN PARAMETERS: Enterococcus faecism ATCC 8043 (code II); unit assumed
MEASURE: MIC (µg/mL)
Expressed in µg/mL, but write only the number.

# example entries with known answers
Q: Specify MIC for CC[C@H]1OC(=O)[C@H](C)C(=O)[C@H](C)[C@@H](O[C@@H]2O[C@H](C)C[C@H](N(C)C)[C@H]2O)[C@@](C)(OCCCc2ccccc2)C[C@@H](C)C(=O)[C@H](C)[C@@H](O)[C@]1(C)O and stop.
A: 1.56

Q: Specify MIC for CCC1OC(=O)C(C)C(=O)C(C)C(OC2OC(C)CC(N(C)C)C2O)C(C)(OCC=Cc2ccc3ncccc3c2)CC(C)C(=O)C(C)C2NC(=O)OC12C (stereo not shown) and stop.
A: 0.02

Q: Specify MIC for CC[C@H]1OC(=O)[C@H](C)C(=O)[C@H](C)[C@@H](O[C@@H]2O[C@H](C)C[C@H](N(C)C)[C@H]2O)[C@@](C)(OCCN)C[C@@H](C)C(=O)[C@H](C)[C@@H](O)[C@]1(C)O and stop.
A: 6.2

Now let's try a different one.
Q: Specify MIC for CC[C@H]1OC(=O)[C@H](C)C(=O)[C@H](C)[C@@H](O[C@@H]2O[C@H](C)C[C@H](N(C)C)[C@H]2O)[C@@](C)(OCC=Cc2ccccc2)C[C@@H](C)C(=O)[C@H](C)[C@H]2OC(=O)O[C@@]21C and stop.
A: 0.05

###

Measured MIC by item
# Test system: up to 32 different microorganisms
# ASSAY NAME: in vitro antibacterial activity (MIC), agar dilution on Brain Heart Infusion (BHI) agar with Steers replicator
# Type: cell-based
# RUN PARAMETERS: organism code II; unit assumed
Please report the result as a number followed by the unit.

Q: Specify MIC for CC[C@H]1OC(=O)[C@H](C)C(=O)[C@H](C)[C@@H](O[C@@H]2O[C@H](C)C[C@H](N(C)C)[C@H]2O)[C@@](C)(OCC=NOCc2cccc3ccccc23)C[C@@H](C)C(=O)[C@H](C)[C@H]2NC(=O)O[C@@]21C and stop.
A: 0.05 µg/mL

Q: Specify MIC for CC[C@H]1OC(=O)[C@H](C)C(=O)[C@H](C)[C@@H](O[C@@H]2O[C@H](C)C[C@H](N(C)C)[C@H]2O)[C@@](C)(OCCNCCCc2ccccc2)C[C@@H](C)C(=O)[C@H](C)[C@H]2NC(=O)O[C@@]21C and stop.
A: 0.05 µg/mL

Q: Specify MIC for CCC1OC(=O)C(C)C(=O)C(C)C(OC2OC(C)CC(N(C)C)C2O)C(C)(OCC2CC2c2cnc3ccccc3c2)CC(C)C(=O)C(C)C2NC(=O)OC12C (stereo not drawn) and stop.
A: 0.02 µg/mL

###

# Tested on: up to 32 different microorganisms
# ASSAY NAME: in vitro antibacterial activity (MIC), agar dilution on Brain Heart Infusion (BHI) agar with Steers replicator
# Assay type: cell-based
# RUN PARAMETERS: Streptococcus Pneumonia ATCC6303 (code XX); unit assumed
Measured MIC by item
Expressed in µg/mL, but write only the number.

Q: Specify MIC for CC[C@H]1OC(=O)[C@H](C)C(=O)[C@H](C)[C@@H](O[C@@H]2O[C@H](C)C[C@H](N(C)C)[C@H]2O)[C@@](C)(OCC=Cc2ccccc2)C[C@@H](C)C(=O)[C@H](C)[C@H]2NC(=O)O[C@@]21C and stop.
A: 0.03

Q: Specify MIC for CCC1OC(=O)C(C)C(=O)C(C)C(OC2OC(C)CC(N(C)C)C2O)C(C)(OCC=Cc2cnc3ccccc3c2)CC(C)C(=O)C(C)C2N(CC=Cc3cnc4ccccc4c3)C(=O)OC12C (stereo not drawn) and stop.
A: 1

Q: Specify MIC for CC[C@H]1OC(=O)[C@H](C)C(=O)[C@H](C)[C@@H](O[C@@H]2O[C@H](C)C[C@H](N(C)C)[C@H]2O)[C@@](C)(OCC=Cc2ccccc2)C[C@@H](C)C(=O)[C@H](C)[C@H]2OC(=O)O[C@@]21C and stop.
A: 0.06

Q: Specify MIC for CCC1OC(=O)C(C)C(=O)C(C)C(OC2OC(C)CC(N(C)C)C2O)C(C)(OCC=Cc2cccc3cccnc23)CC(C)C(=O)C(C)C2NC(=O)OC12C (stereo not drawn) and stop.
A: 0.125

Q: Specify MIC for CC[C@H]1OC(=O)[C@H](C)C(=O)[C@H](C)[C@@H](O[C@@H]2O[C@H](C)C[C@H](N(C)C)[C@H]2O)[C@@](C)(OCCNCc2ccccc2)C[C@@H](C)C(=O)[C@H](C)[C@@H](O)[C@]1(C)O and stop.
A: 0.25

Q: Specify MIC for CC[C@H]1OC(=O)[C@H](C)C(=O)[C@H](C)[C@@H](O[C@@H]2O[C@H](C)C[C@H](N(C)C)[C@H]2O)[C@@](C)(OCc2ccc3ccccc3c2)C[C@@H](C)C(=O)[C@H](C)[C@@H](O)[C@]1(C)O and stop.
A: 2

Q: Specify MIC for CC[C@H]1OC(=O)[C@H](C)C(=O)[C@H](C)[C@@H](O[C@@H]2O[C@H](C)C[C@H](N(C)C)[C@H]2O)[C@@](C)(OCC=Cc2cnc3ccccc3c2)C[C@@H](C)C(=O)[C@H](C)[C@H]2NC(=O)O[C@@]21C and stop.
A: 0.03

Q: Specify MIC for CCC1OC(=O)C(C)C(=O)C(C)C(OC2OC(C)CC(N(C)C)C2O)C(C)(OCC=Cc2cccnc2)CC(C)C(=O)C(C)C2NC(=O)OC12C (stereo not drawn) and stop.
A: 0.03

Now let's try a different one.
Q: Specify MIC for CC[C@H]1OC(=O)[C@H](C)C(=O)[C@H](C)[C@@H](O[C@@H]2O[C@H](C)C[C@H](N(C)C)[C@H]2O)[C@@](C)(OCC(O)C#N)C[C@@H](C)C(=O)[C@H](C)[C@@H](O)[C@]1(C)O (stereo partly drawn) and stop.
A: 0.03
